Values from ChEMBL document CHEMBL3045856

The following compounds are shown together with reported IC50 values.
- Tested on: Bacillus subtilis
- TEST: Antimicrobial activity against Bacillus subtilis NCIM 2921 assessed as growth inhibition after 24 hr by serial double dilution method
- Type: functional, organism-based
- CONDITIONS: NCIM 2921, 24 h, read-out: IC50
ASSAY READOUT: IC50 (µM)

item_smiles=Oc1ccc(/C=N/NC(=S)N2CCNCC2)cc1 test_value=1.62
item_smiles=S=C(N/N=C/c1ccccc1)N1CCNCC1 test_value=0.93
item_smiles=S=C(NN=C(c1ccccc1)c1ccccc1)N1CCNCC1 test_value=1.38
